Target: T1, human PRLR construct with an HA tag on HEK293/hPRLR cells (human, UniProt P16471 25-622)
T1 sequence: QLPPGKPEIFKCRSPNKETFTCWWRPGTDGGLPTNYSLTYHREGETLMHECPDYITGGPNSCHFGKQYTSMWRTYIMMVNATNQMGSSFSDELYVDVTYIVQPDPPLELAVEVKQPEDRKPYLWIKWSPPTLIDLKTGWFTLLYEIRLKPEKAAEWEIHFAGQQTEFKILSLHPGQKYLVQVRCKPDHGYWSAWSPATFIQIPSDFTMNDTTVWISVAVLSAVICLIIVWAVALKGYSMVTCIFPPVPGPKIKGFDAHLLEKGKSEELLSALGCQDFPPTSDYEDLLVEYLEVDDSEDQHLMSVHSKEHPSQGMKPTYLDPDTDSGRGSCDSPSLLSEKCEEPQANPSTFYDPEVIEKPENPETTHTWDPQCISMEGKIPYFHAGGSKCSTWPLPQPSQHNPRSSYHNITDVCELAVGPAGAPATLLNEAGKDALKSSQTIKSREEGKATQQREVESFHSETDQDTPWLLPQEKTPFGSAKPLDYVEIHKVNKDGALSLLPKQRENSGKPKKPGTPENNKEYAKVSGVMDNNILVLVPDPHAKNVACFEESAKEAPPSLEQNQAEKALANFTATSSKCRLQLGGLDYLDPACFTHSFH
Assay: FACS on HEK293/hPRLR cells
// FACS Cell Binding (Fold Above Background) lookup, one value per entry
Just so you know, I need the unit written after the number.

// worked examples, FACS Cell Binding (Fold Above Background) included
binder	observed.value
H1H6966N (antibody, human IgG1, V domains shown, also called H2M6966N) VH: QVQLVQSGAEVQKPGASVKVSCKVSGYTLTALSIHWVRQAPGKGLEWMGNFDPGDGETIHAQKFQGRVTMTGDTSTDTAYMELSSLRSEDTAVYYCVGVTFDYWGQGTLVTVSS VL: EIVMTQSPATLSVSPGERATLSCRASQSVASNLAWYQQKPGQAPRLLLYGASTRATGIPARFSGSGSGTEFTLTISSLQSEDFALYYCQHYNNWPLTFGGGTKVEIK	29 fold
H1H6803P (antibody, human IgG1, V domains shown, human IgG1 Fc (H1H)) VH: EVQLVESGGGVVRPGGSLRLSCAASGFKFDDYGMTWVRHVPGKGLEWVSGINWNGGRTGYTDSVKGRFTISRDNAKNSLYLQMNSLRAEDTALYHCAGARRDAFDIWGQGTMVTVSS VL: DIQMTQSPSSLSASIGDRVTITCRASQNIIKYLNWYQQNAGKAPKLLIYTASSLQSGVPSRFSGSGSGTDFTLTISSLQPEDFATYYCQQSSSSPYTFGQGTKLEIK	39 fold
H1H6800P (antibody, human IgG1, V domains shown, human IgG1 Fc (H1H)) VH: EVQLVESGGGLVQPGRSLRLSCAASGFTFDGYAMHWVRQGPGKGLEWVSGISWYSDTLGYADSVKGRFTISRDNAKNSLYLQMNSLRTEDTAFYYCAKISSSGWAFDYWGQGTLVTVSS VL: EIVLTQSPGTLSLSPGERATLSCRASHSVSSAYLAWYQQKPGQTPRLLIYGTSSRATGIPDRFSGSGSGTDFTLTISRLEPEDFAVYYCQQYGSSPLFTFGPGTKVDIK	35 fold
H1H6785P (antibody, human IgG1, V domains shown, human IgG1 Fc (H1H)) VH: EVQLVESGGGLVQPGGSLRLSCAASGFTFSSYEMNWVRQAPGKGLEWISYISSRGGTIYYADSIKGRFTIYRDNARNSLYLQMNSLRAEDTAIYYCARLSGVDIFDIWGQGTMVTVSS VL: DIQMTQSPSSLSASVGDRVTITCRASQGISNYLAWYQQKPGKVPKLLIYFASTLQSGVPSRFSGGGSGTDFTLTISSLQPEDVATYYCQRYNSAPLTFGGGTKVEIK	37 fold

Item: H1H6790P (antibody, human IgG1, V domains shown, human IgG1 Fc (H1H)) VH: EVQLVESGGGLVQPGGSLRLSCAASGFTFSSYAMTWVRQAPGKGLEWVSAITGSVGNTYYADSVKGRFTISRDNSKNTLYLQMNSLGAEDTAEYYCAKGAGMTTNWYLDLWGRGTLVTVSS VL: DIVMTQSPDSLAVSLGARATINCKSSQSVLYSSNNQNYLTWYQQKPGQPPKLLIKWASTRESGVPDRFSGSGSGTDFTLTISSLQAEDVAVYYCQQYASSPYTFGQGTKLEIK | FACS Cell Binding (Fold Above Background): 37 fold

Origin of the recorded values: patent US20180185504A1
